Values compiled from the supplement of paper PMC7125110.

B1: glmS ribozyme (parent)
chain: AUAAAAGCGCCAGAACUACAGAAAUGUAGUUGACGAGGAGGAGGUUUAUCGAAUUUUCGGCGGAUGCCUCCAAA

- Variants of: B1
- experiment-description: self-cleavage kobs at 640 uM GlcN6P; higher = faster cleavage; RNA array
- experimental-context: with glucosamine-6-phosphate
Fewer inactive variants are shown than the library holds.
Classification field: satisfied = self-cleavage kobs at 640 uM GlcN6P at or over 0.0004 s⁻¹; not satisfied = self-cleavage kobs at 640 uM GlcN6P under 0.0004 s⁻¹.

Worked set:
variant-identifier: G43C C50A
group: not satisfied

variant-identifier: A14U A52U
group: not satisfied

variant-identifier: C11A A15U C70G
group: satisfied

variant-identifier: C8A U55G G63U
group: not satisfied

variant-identifier: A14G G32A
group: satisfied

q: Does self-cleavage kobs at 640 uM GlcN6P meet or surpass 0.0004 s⁻¹ for A33C C34G G40U A48U C61A ?
a: not satisfied

q: Does self-cleavage kobs at 640 uM GlcN6P meet or surpass 0.0004 s⁻¹ for G38A G40U U65C ?
a: not satisfied
